test: NCI Yeast Anticancer Drug Screen. Data for the bub3 strain (AID 167); settings: S. cerevisiae bub3 mutant strain, at 50.0 µM (retest, dose inferred, filed as 5.0), active compounds read high
About 79,000 compounds went through this panel and 15% of them were active in at least one assay; those are over-represented in the sample as a whole.
attributeMeasured: growth inhibition (%)
Give the value, in units of %, as a plain number.

compound="CC[C@@]1(OC(=O)C(N)CCCCN)C(=O)OCc2c1cc1n(c2=O)Cc2cc3ccccc3nc2-1 (stereo not given in full)" experimentalresult=30

Inquiry: State, in one line, measured growth inhibition of O=S(c1cc(Cl)cc(Cl)c1O)c1cc(Cl)cc(Cl)c1O
Reply text: 100

Inquiry: State, in one line, measured growth inhibition of O=C(CNCc1ccccc1)Oc1c(Cl)c(Cl)c(Cl)c(Cl)c1Cl
Reply text: 31

Inquiry: State, in one line, measured growth inhibition of Clc1ccc(CNCCCNCc2ccc(Cl)cc2)cc1
Reply text: 20

Inquiry: State, in one line, measured growth inhibition of c1ccc2c(c1)CNc1ccccc1-2
Reply text: 60

Inquiry: State, in one line, measured growth inhibition of Clc1ccc(CNNCc2ccc(Cl)cc2)cc1
Reply text: 96

Inquiry: State, in one line, measured growth inhibition of c1ccc(C(c2ccccc2)n2ccnc2)cc1
Reply text: 2

Inquiry: State, in one line, measured growth inhibition of COc1ccc2c(c1)c[n+](C)c1c3cc(OC)c(OC)cc3ccc21
Reply text: 61

Inquiry: State, in one line, measured growth inhibition of CCN(CC)Cc1cc2c(cc1O)CC[C@@H]1[C@@H]2CC[C@]2(C)C(=O)CC[C@@H]12
Reply text: 67

Inquiry: State, in one line, measured growth inhibition of NC(CC(=O)O)C(=O)O (stereo not given)
Reply text: 0

Inquiry: State, in one line, measured growth inhibition of Cc1ccc(OC(=O)c2ccc(N)cc2O)cc1
Reply text: 90

Inquiry: State, in one line, measured growth inhibition of O=C1C=CC(=O)C(c2ccc3ccccc3c2)=C1
Reply text: 97

Inquiry: State, in one line, measured growth inhibition of NNC(=O)c1ccc(NC(=O)CSc2nc3ccccc3s2)cc1
Reply text: 82

Inquiry: State, in one line, measured growth inhibition of NS(=O)(=O)c1ccc(Nc2c3ccccc3nc3c(C(=O)N4CCN(CCO)CC4)cccc23)cc1
Reply text: 32

Inquiry: State, in one line, measured growth inhibition of COc1ccc(/C=C2\C=Nc3ccccc32)cc1
Reply text: 30

Inquiry: State, in one line, measured growth inhibition of O=C(CON1C(=O)c2ccccc2C1=O)c1ccccc1
Reply text: 32

Inquiry: State, in one line, measured growth inhibition of BrC(c1cccc2ccccc12)c1cccc2ccccc12
Reply text: 96

Inquiry: State, in one line, measured growth inhibition of c1ccc2c(c1)CC1=C(O2)c2ccccc2OC1
Reply text: 80

Inquiry: State, in one line, measured growth inhibition of O=C(O)C1(Cc2ccccc2)Cc2cc3c(cc2C1)CCC3
Reply text: -17

Inquiry: State, in one line, measured growth inhibition of OC(CN1CCCCC1)c1cc(-c2ccc(Cl)cc2)nc2cc(Cl)ccc12 (stereo not given)
Reply text: 99

Inquiry: State, in one line, measured growth inhibition of Cc1n(CC(C)C)c2c([n+]1C)C(=O)c1ccccc1C2=O
Reply text: 99
